- TESTED_TARGET: RSV prefusion F (preF), subtype B (respiratory syncytial virus, subtype B)
- TEST_METHOD_NOTES: BLI, IgG
QUANTITY: Kd

• ADI-14584 (antibody, V domains shown, also called Ab 113) VH: QVQLVQSGAEVKKPGASVKVSCKASGFTFTNYGTSYGITWVRQAPGQGLEWMGWINTSNGNPNYAQKLQGRVTMTADTSTSTAYMELRSLISDDTAVYYCARGHRMVRGVVPTGYYGLDVWGQGTTVTVSS VL: DIQLTQSPSSLSASVGDRVTITCRASQSISSYLNWYQQKPGKAPKLLIFAASNLQSGVPSRFSGSGSGTDFTLTISSLQPEDFATYYCQQSYITPWTFGQGTKVEIK = 0.476 nM
• ADI-21063 (antibody, V domains shown) VH: EVQLVESGGGLVQPGGSLRLSCSASGFTFRTYVMQWVRQAPGKGLEYVSAISSDGGSTDYADSVKGRFTVSRDNSKNTLYLQMSSLRAEDTAVYYCVKRGEGGNDYLYYYMDVWGKGTTVTVSS VL: DIQVTQSPSSLSASVGDRVTITCRASQSITNYLNWYQQKPGKAPKVLIYAASSLQSGVPSRFSGSGSGTDFTLTISSLQPEDFATYYCQQSYLRPPTFGGGTKVEIK = 0.777 nM
• ADI-20987 (antibody, V domains shown) VH: QVQLVQSGGGVVHPGRSLRLSCAASGFSFSDYGMHWVRQAPGKGLEWVAVIWYDGINKYYADSVKGRFAISRDNSKNTLYLQMNSLRAGDTAVYYCARGGIAAAQRYFDYWGQGTLVTVSS VL: ETTLTQSPGTLSLSPGERATLSCRASQTVSSSNLAWYQQKPGQAPRLLIYGASSRATGIPDRFSGSGSGTDFTLTISRLEPEDFAVYYCQQSGTSFGQGTKVDIK = 35.6 nM
